experimental_system: BRDT-BD2 (Homo sapiens (Human), UniProt Q58F21)
test_method_notes: AlphaScreen bromodomain proximity assay (competition with biotinylated (+)-JQ1), BRDT-BD2
quantity_kind: IC50 (nM)
Answer with a number only, understood to be in nM.

Solved cases below.
{"molecule": "Cc1cc(N)ccc1-c1nn(C)c2ccc(C(=O)Nc3ccccc3)cc12 [compound 25]", "unit_tag": "nM", "IC50": 90}
{"molecule": "Cc1ccc(NC(=O)c2ccc3c(c2)c(-c2ccc(N)nc2)nn3C)cc1NC(=O)N1CCNCC1 [compound 46]", "unit_tag": "nM", "IC50": 79}

Turning now to a further molecule:
Q. Which IC50 reading was recorded for the molecule CNC(=O)c1ccc(C(=O)Nc2cc(NC(=O)c3ccc4c(c3)c(-c3ccc(N)cc3C)nn4C)ccc2OC)cc1 [compound 4] ?
A. 12
